# Test: Pharmacokinetics (clearance and volume of distribution)
# Format: in vivo
# Measurement Conditions: in vivo; noncompartmental; intravenous (IV) dosing; species not given
Experimental Readout: clearance (mL/min/kg)

Below: 3 molecules and their reported clearance.
[[record]]
molecule = "Nc1ncc(-c2ccc(S(=O)(=O)C3CCCNC3)cc2)nc1-c1cc(-c2ccccc2)no1 (centres unmarked)"
unit_info = "mL/min/kg"
measured_number = 0.9

[[record]]
molecule = "Cc1ccsc1-c1nnc(-c2nc(-c3ccc(S(=O)(=O)C4CCCNC4)cc3)cnc2N)o1 (centres unmarked)"
unit_info = "mL/min/kg"
measured_number = 9.3

[[record]]
molecule = "Nc1ncc(-c2ccc(S(=O)(=O)C3CCCNC3)cc2)nc1-c1cc(-c2cccs2)no1 (centres unmarked)"
unit_info = "mL/min/kg"
measured_number = 3.3


P = COc1ccccc1-c1nnc(-c2nc(-c3ccc(S(=O)(=O)C4CCCNC4)cc3)cnc2N)o1 (centres unmarked)
Q = Cc1ccsc1-c1nnc(-c2nc(-c3ccc(S(=O)(=O)C4CCNCC4)cc3)cnc2N)o1 [Compound A, reference compound]
Problem: Choose between P and Q : whose measured clearance value is numerically larger? Indicate your choice by writing its label.
Solution: Q
